B1: CPEB3 Ribozyme (parent)
chain: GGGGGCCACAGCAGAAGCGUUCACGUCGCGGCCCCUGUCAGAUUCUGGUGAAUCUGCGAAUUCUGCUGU

Variants of: B1
assay procedure: self-cleavage, relative activity (ratio to wild type); higher = more cleavage; co-transcriptional
Param threshold (0.6) applies to self-cleavage; output 1 when value >= threshold, 0 when value < threshold.

Task: Tell me whether self-cleavage is at least 0.6 here: GGAGGCCACAGCAGAAGCGUUCACGUCGCGCCCCCUGUCAGAUUCUGGUGAAUCUGCGAAUUCUGCUGU
Output: 0

Task: Next up: GGGGGCCACAGCAGAAGCGUUCACGUCGCGGCACCUGUCAGAUUCUGGUGAAUCUGAGAAUUCUGCUGU
Output: 0

Task: Next up: GGGGGCAACAGCAGAAGCUUUCACGUCGCGGCCCCUGUCAGAUUCUGGUGAAUCUGCGAAUUCUGCUGU
Output: 0

Task: Next up: GGGGGCCACAGCAGAAGCGUUCACGUCGCGGCCCCUGUCAGAUUCUGGUGAUUCUGCGAUUUCUGCUGU
Output: 0

Task: Next up: GGGGGCCACAGCUGAAGCUUUCACGUCGCGGCCCCUGUCAGAUUCUGGUGAAUCUGCGAAUUCUGCUGU
Output: 0

Task: Next up: GGGGGCCGUAGCAGAAGCGUUCACGUCGCGGCCCCUGUCAGAUUCUGGUGAAUCUGCGAAUUCUGCUGU
Output: 1

Task: Next up: GGGGGCCACAGCAGAAGCGUUCACGUCGCGGCCCCUGUGAGAUUCUGGAGAAUCUGCGAAUUCUGCUGU
Output: 1

Task: Next up: GGGCGCCACAGCAGAAGCGUUCACGUCGCGGCCCCUGUCAGAUUCUGGUGGAUCUGCGAAUUCUGCUGU
Output: 0

Task: Next up: GGGGGCCACAGCAGAAGCGUUCACGUCGCGGCCCCUGUCAGAUUCUGAUGAAUCUGCGAAUUCUGCUGC
Output: 1

Task: Next up: GGGGGCCACAGCAGAAGCGUUCACGUCGGGGCCCUUGUCAGAUUCUGGUGAAUCUGCGAAUUCUGCUGU
Output: 0

Task: Next up: GGGGGCCACAGCAGAAGCGUUCACGUCGCGGCCCCAGACAGAUUCUGGUGAAUCUGCGAAUUCUGCUGU
Output: 0

Task: Next up: GGGGGCCACAGCAGAAGCUCUCACGUCGCGGCCCCUGUCAGAUUCUGGUGAAUCUGCGAAUUCUGCUGU
Output: 0

Task: Next up: GGGGGCCACAGCAUAAGCGUUCACGUCGAGGCCCCUGUCAGAUUCUGGUGAAUCUGCGAAUUCUGCUGU
Output: 0

Task: Next up: GGGGGUCACAGCAGAAGCGUUCACGUCGCGGCCCCUGUCAGAUUCUGGUGAAUCUGCGUAUUCUGCUGU
Output: 1

Task: Next up: GGGGGGCACAGCAGAAGCGUUCACGUCGCGGCCCCUGUCAGAUUCUGGAGAAUCUGCGAAUUCUGCUGU
Output: 0

Task: Next up: GGGGGCCGCAGCAGAAGCGCUCACGUCGCGGCCCCUGUCAGAUUCUGGUGAAUCUGCGAAUUCUGCUGU
Output: 0

Task: Next up: GGGGGCCACAGCAGAAGCGUUCACGUCGCGGCCCCUGUCAGAUUCUGUUGAAGCUGCGAAUUCUGCUGU
Output: 1

Task: Next up: GGGAGCCAUAGCAGAAGCGUUCACGUCGCGGCCCCUGUCAGAUUCUGGUGAAUCUGCGAAUUCUGCUGU
Output: 1

Task: Next up: GGGGGCCACAGCAGAAGCGUUCACGUCGCGGCCCCUGCUAGAUUCUGGUGAAUCUGCGAAUUCUGCUGU
Output: 1

Task: Next up: GGGGGCCACAGCAGCAGCGUUCACGUCGCGGGCCCUGUCAGAUUCUGGUGAAUCUGCGAAUUCUGCUGU
Output: 0

Task: Next up: GGGGGCCACAGCAGAAGCGUUCACGUCGCGGCCCCUUUCAGAUUCUGGUGAAUCUGCGAAUUCUACUGU
Output: 0

Task: Next up: GGGGGCCACAGCAGAGGCGUCCACGUCGCGGCCCCUGUCAGAUUCUGGUGAAUCUGCGAAUUCUGCUGU
Output: 1

Task: Next up: GGGGGCCACAGCAGAAGCGUUCACGUCGCGGCCCAUGUCAGAUUCUGGUGAAUUUGCGAAUUCUGCUGU
Output: 0

Task: Next up: GGGGGCCACAGCAGAUGCGUUCACGUCGCGGCCCCUGUCAGCUUCUGGUGAAUCUGCGAAUUCUGCUGU
Output: 1

Task: Next up: GGGGGCCACAGCAGAAGCGUUCACGUCGCGUCCCCUGUCAGAUUCUCGUGAAUCUGCGAAUUCUGCUGU
Output: 1

Task: Next up: GGGGGCCACAGCAGAAGCGUUCACGUCGCGGCCCCUGUCAGAUUCUGGUUAAUCUGCGAAUUCUGCUCU
Output: 1

Task: Next up: GGGGGCCACAGCAGAAGCGUUCACGUCGCGGCCCCUGUCAGAUUCUGAUGAAUCUGCGAAUUCUGCGGU
Output: 1

Task: Next up: GGGGGCCACAGCAAAAGCGUUCACGUCGCGGCCCCUGUAAGAUUCUGGUGAAUCUGCGAAUUCUGCUGU
Output: 0

Task: Next up: GGGGGGCACAGCAGAAGCGUUCACGUCGCGGCCCCUGUCAGAUUCUGGUGAAUCUGCGAAUUCUUCUGU
Output: 0

Task: Next up: GGGGGCCACAGCAGAAGCGUUCGCGUCGCGGCCCCUGUCGGAUUCUGGUGAAUCUGCGAAUUCUGCUGU
Output: 1

Task: Next up: GGGGGCCACAGCAGAAGCGCUCACGUCGCGGCCCCUUUCAGAUUCUGGUGAAUCUGCGAAUUCUGCUGU
Output: 0

Task: Next up: GGGGGCCACAGCAGAAGCGUUCACGUCGCGGCCCCUGUCAGUUUCUGGUGAAUCAGCGAAUUCUGCUGU
Output: 0

Task: Next up: GGGGGCCACAGCAGAAGCGUUCACGUCGCGCCCCCUGUCAGAUUCUGGUGAAUCUGCGAAUUCUGUUGU
Output: 0

Task: Next up: GGGGGUCACAGCAGAAGCGUUCACGUCGCGGCCCCUGUCAGAUUAUGGUGAAUCUGCGAAUUCUGCUGU
Output: 1

Task: Next up: GGGGGCCACAGCAGAAGCGUUCACGUCGCGGCCCCUGUCUGAUUCUGUUGAAUCUGCGAAUUCUGCUGU
Output: 1
